- Target or test system: Neutrophil elastase (Homo sapiens, UniProt P08246)
- Sequence (P08246 whole entry): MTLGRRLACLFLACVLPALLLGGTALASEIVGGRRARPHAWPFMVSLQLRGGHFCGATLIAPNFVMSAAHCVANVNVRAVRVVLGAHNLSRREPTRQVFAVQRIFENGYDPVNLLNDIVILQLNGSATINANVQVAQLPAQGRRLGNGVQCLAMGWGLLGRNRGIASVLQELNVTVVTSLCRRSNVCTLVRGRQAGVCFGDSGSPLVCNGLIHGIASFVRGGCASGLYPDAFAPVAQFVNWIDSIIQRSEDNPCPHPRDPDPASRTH
- Test protocol: Inhibitory activity was evaluated against human leukocyte elastase
pIC50: −log10 of the molar value.

>  <Molecule>
CCCCCCC(CCCC)c1cc(O)cc(=O)o1 (stereo not given)

>  <pIC50>
2.79

$$$$
>  <Molecule>
CCCCCCCCCCCC(=O)c1c(O)cc(C)oc1=O

>  <pIC50>
4.57

$$$$
>  <Molecule>
CCCCCCCCCCCc1cc(O)cc(=O)o1

>  <pIC50>
2.50

$$$$
>  <Molecule>
CCCCCCCCCCCCCCCC(=O)c1c(O)cc(C)oc1=O

>  <pIC50>
4.45

$$$$
>  <Molecule>
CCCCCCCCCCCc1cc(O)cc(=O)[nH]1

>  <pIC50>
3.82

$$$$

----------
- Target or test system: Neutrophil elastase (Homo sapiens)
- Test protocol: Inhibitory activity was evaluated against human leukocyte elastase; Inactive
Readout kind: IC50

>  <Molecular string>
CCCCCCCc1cc(O)cc(=O)o1

>  <Obs value>
Not Active

$$$$
>  <Molecular string>
CCCCc1cc(O)cc(=O)o1

>  <Obs value>
Not Active

$$$$
>  <Molecular string>
CCC(=O)c1c(O)cc(C)oc1=O

>  <Obs value>
Not Active

$$$$
>  <Molecular string>
CCCCCC(=O)c1c(O)cc(C)oc1=O

>  <Obs value>
Not Active

$$$$
>  <Molecular string>
CCCc1cc(O)cc(=O)o1

>  <Obs value>
Not Active

$$$$
>  <Molecular string>
CCCC(=O)c1c(O)cc(C)oc1=O

>  <Obs value>
Not Active

$$$$
>  <Molecular string>
CCCCCc1cc(O)cc(=O)o1

>  <Obs value>
Not Active

$$$$
>  <Molecular string>
CCCCCCCc1cc(O)cc(O)n1

>  <Obs value>
Not Active

$$$$
